This listing pairs molecules with measured TGI.
Tested on: SR leukemia
Test: NCI tumour cell line growth inhibition, 48 h
quantity-name: TGI (µM)

[[record]]
molecule = "NC(=O)NCCSC1CCCCC1O (stereo not given)"
quantity_name = "TGI"
units_symbol = "µM"
inequality_sign = ">"
result_value = 100

[[record]]
molecule = "COc1ccc2c(c1)-c1nn(CCN(C)C)c3ccc(C(=O)NCCCN(C)CCCNC(=O)c4ccc5c6c(nn5CCN(C)C)-c5cc(OC)ccc5Nc46)c(c13)N2"
quantity_name = "TGI"
units_symbol = "µM"
inequality_sign = "="
result_value = 3.39

[[record]]
molecule = "COc1cc2c(c(OC)c1OC)-c1ccc(SC)c(=O)cc1C(CC(=O)Oc1cccc(C#N)c1)C2 (stereo not given)"
quantity_name = "TGI"
units_symbol = "µM"
inequality_sign = "="
result_value = 56.3

[[record]]
molecule = "Clc1ncnc2c1ncn2CCCCCCCCCCCCn1cnc2c(Cl)ncnc21"
quantity_name = "TGI"
units_symbol = "µM"
inequality_sign = "="
result_value = 3.82

[[record]]
molecule = "O=C(O)c1ccc(Nc2nc3ccccc3nc2C(=O)O)cc1"
quantity_name = "TGI"
units_symbol = "µM"
inequality_sign = ">"
result_value = 100


---

System: NCI/ADR-RES ovarian
Experiment: NCI tumour cell line growth inhibition, 48 h
quantity-name: TGI

[[record]]
compound = "COc1ccc2c(c1)CC[C@@H]1[C@@H]2CC[C@]2(C)C(=O)/C(=C/c3cc(OC)c(OC)c(OC)c3)C[C@@H]12"
quantity_name = "TGI"
result_value = "34.6 µM"

[[record]]
compound = "CC(C)C1=CC23CCC4C(C)(C(=O)O)CCCC4(C)C2CC1C(C(=O)O)C3C(=O)O (centres undefined)"
quantity_name = "TGI"
result_value = "> 100 µM"

[[record]]
compound = "O=C(C#Cc1cn(C2CC(O)C(CO)O2)c(=O)[nH]c1=O)c1ccccc1 (centres undefined)"
quantity_name = "TGI"
result_value = "> 100 µM"

[[record]]
compound = "CC(C)CCC/C(CBr)=C(\\Cl)CCl"
quantity_name = "TGI"
result_value = "10.7 µM"

[[record]]
compound = "Cc1ccc(Oc2nc3ccccc3cc2-c2nnc(Cn3c(COc4ccccc4)nc4ccccc43)o2)cc1"
quantity_name = "TGI"
result_value = "10.9 µM"

[[record]]
compound = "CCOC(=O)C(C)c1nc2cc(N3CCN(C)CC3)c(F)cc2[nH]c1=O (centres undefined)"
quantity_name = "TGI"
result_value = "> 100 µM"

[[record]]
compound = "COc1cc2c3c(n(C)c(=O)c2cc1OC)-c1cc2c(cc1/C3=C/[C@H](N)CCCCN)OCO2"
quantity_name = "TGI"
result_value = "> 27.1 µM"

[[record]]
compound = "Cc1ccc2nc(N/N=C/c3cccc(C)n3)cc(C)c2c1"
quantity_name = "TGI"
result_value = "48 µM"

[[record]]
compound = "Nc1nc2cc(CNc3ccc(C(=O)NC(CCC(=O)O)C(=O)O)cc3)ccc2nc1-c1ccccc1 (centres undefined)"
quantity_name = "TGI"
result_value = "> 10 µM"

[[record]]
compound = "COc1cc(-c2n/c(=C\\c3c(O)[nH]c4ccccc34)cc3c2=Nc2ccccc2-3)cc(OC)c1OC"
quantity_name = "TGI"
result_value = "> 31.5 µM"

[[record]]
compound = "CC[C@@]1(O)C(=O)OCc2c1cc1n(c2=O)Cc2cc3c(NC(=O)CN)cccc3nc2-1"
quantity_name = "TGI"
result_value = "> 100 µM"

[[record]]
compound = "COc1ccc2c(c1)C(=O)c1c-2n(CCCN2CCOCC2)c(=O)c2cc([N+](=O)[O-])ccc12"
quantity_name = "TGI"
result_value = "< 0.0279 µM"

[[record]]
compound = "COc1ccc(-c2ccccc2)cc1-c1c(Nc2cc(Cl)cc(Cl)c2O)c(=O)c1=O"
quantity_name = "TGI"
result_value = "> 50 µM"

[[record]]
compound = "CC[C@@H]1CC[C@@H]2[C@H](CC[C@]3(C)[C@@H](OS(=O)(=O)c4ccc(C)cc4)CC[C@@H]23)[C@H]1CO"
quantity_name = "TGI"
result_value = "> 100 µM"

[[record]]
compound = "CC(C)(C)OC(=O)NCC(=O)N1CCCN(C(=O)CNC(=O)OC(C)(C)C)CC1"
quantity_name = "TGI"
result_value = "> 100 µM"

[[record]]
compound = "C[C@H](CCC1=NCCN1)[C@H]1CC[C@H]2[C@@H]3CC[C@@H]4C[C@H](O)CC[C@]4(C)[C@H]3C[C@H](O)[C@]12C"
quantity_name = "TGI"
result_value = "> 100 µM"

[[record]]
compound = "O=C1/C(=C/c2ccco2)NC(=S)N1CN1CCOCC1"
quantity_name = "TGI"
result_value = "> 100 µM"

[[record]]
compound = "COC(=O)c1ccccc1CC(Cc1ccccc1)C(=O)OC (centres undefined)"
quantity_name = "TGI"
result_value = "> 100 µM"

[[record]]
compound = "Cc1n(CC(=O)c2ccccc2)nc2sc(N)n[n+]12"
quantity_name = "TGI"
result_value = "> 100 µM"


These data points were gathered from PubChem BioAssay (NCI).
